Potency ratio: recorded values
- Organism: Mus musculus
- experiment.notes: Potency ratio as the ratio of IC50 of DMXXA against murine macrophages to that of the IC50 against murine macrophages
- Type: ADME
Answer using only a numeral; do not append any unit.

Below, each entry is followed by its recorded Potency ratio result.
compound	Potency ratio
COC(=O)Cc1cccc2c(=O)c3ccc4c(c3oc12)CC(C)O4 (centres undefined)	2.5
C#CCOc1ccc2c(=O)c3cccc(CC(=O)OC)c3oc2c1C	0.6
CC1(C)CCc2c(ccc3c(=O)c4cccc(CC(=O)O)c4oc23)O1	2.9
CC1(C)Cc2c(ccc3c(=O)c4cccc(CC(=O)O)c4oc23)O1	0.9
CC1(C)C=Cc2c(ccc3c(=O)c4cccc(CC(=O)O)c4oc23)O1	4.7

Ask: Note down Potency ratio recorded for COC(=O)Cc1cccc2c(=O)c3ccc4oc(C)cc4c3oc12
Result: 2.6

Ask: Note down Potency ratio recorded for CC(C)=CCOc1ccc2c(=O)c3cccc(CC(=O)O)c3oc2c1
Result: 0.8

Ask: Note down Potency ratio recorded for CC1Cc2c(ccc3c(=O)c4cccc(CC(=O)O)c4oc23)O1 (centres undefined)
Result: 1.3

Ask: Note down Potency ratio recorded for COC(=O)Cc1cccc2c(=O)c3ccc4c(c3oc12)C=CC(C)(C)O4
Result: 6.9

---

- Organism: Homo sapiens
- experiment.notes: Potency ratio as the ratio of IC50 of DMXXA against human monocytes to that of the IC50 against human monocytes.
- Type: ADME
Cut-off 0.8 on Potency ratio: below means Yes, at or above means No.

These recorded examples may help you get a feel for the data.
compound	class.assignment
C=C(C)COc1ccc2c(=O)c3cccc(CC(=O)O)c3oc2c1C	No
COC(=O)Cc1cccc2c(=O)c3ccc4c(c3oc12)C=CC(C)(C)O4	No
COC(=O)Cc1cccc2c(=O)c3ccc4c(c3oc12)CC(C)(C)O4	No
CC1(C)CCc2c(ccc3c(=O)c4cccc(CC(=O)O)c4oc23)O1	No

Ask: In the record for COC(=O)Cc1cccc2c(=O)c3ccc(OCC=C(C)C)c(C)c3oc12 , is Potency ratio less than 0.8?
Result: No

Ask: In the record for COC(=O)Cc1cccc2c(=O)c3ccc4c(c3oc12)CC(C)O4 (stereo unspecified) , is Potency ratio less than 0.8?
Result: No

Ask: In the record for CC1(C)C=Cc2c(ccc3c(=O)c4cccc(CC(=O)O)c4oc23)O1 , is Potency ratio less than 0.8?
Result: Yes

Ask: In the record for CC1Cc2c(ccc3c(=O)c4cccc(CC(=O)O)c4oc23)O1 (stereo unspecified) , is Potency ratio less than 0.8?
Result: Yes

Ask: In the record for CC(C)=CCOc1ccc2c(=O)c3cccc(CC(=O)O)c3oc2c1 , is Potency ratio less than 0.8?
Result: No

---

- Species: Mus musculus
- experiment.notes: Potency ratio as the ratio of IC50 of DMXXA against murine macrophages to that of the IC50 against murine macrophages
- Format: ADME
Potency ratio: recorded values
Answer using only a numeral; do not append any unit.

smiles.structure	Potency ratio
C=CCOc1ccc2c(=O)c3cccc(CC(=O)O)c3oc2c1	1
C=C(C)COc1ccc2c(=O)c3cccc(CC(=O)O)c3oc2c1C	2.7

Ask: Note down Potency ratio recorded for COC(=O)Cc1cccc2c(=O)c3ccc4c(c3oc12)CC(C)(C)O4
Result: 1

Ask: Note down Potency ratio recorded for C=CCOc1ccc2c(=O)c3cccc(CC(=O)OC)c3oc2c1
Result: 3.4

Ask: Note down Potency ratio recorded for Cc1cc2c(ccc3c(=O)c4cccc(CC(=O)O)c4oc32)o1
Result: 5

Ask: Note down Potency ratio recorded for COC(=O)Cc1cccc2c(=O)c3ccc(OCC=C(C)C)c(C)c3oc12
Result: 1

---

- experiment.notes: Potency ratio against macrophages.
- Format: ADME
Potency ratio: recorded values
Answer using only a numeral; do not append any unit.

Below, each entry is followed by its recorded Potency ratio result.
compound	Potency ratio
CC(C)=CCOc1ccc2c(=O)c3cccc(CC(=O)O)c3oc2c1	4.1
CC1(C)C=Cc2c(ccc3c(=O)c4cccc(CC(=O)O)c4oc23)O1	0.2
COC(=O)Cc1cccc2c(=O)c3ccc4c(c3oc12)CC(C)O4 (stereo unspecified)	1.2

Ask: Note down Potency ratio recorded for CC1(C)CCc2c(ccc3c(=O)c4cccc(CC(=O)O)c4oc23)O1
Result: 0.7

Ask: Note down Potency ratio recorded for COC(=O)Cc1cccc2c(=O)c3ccc4c(c3oc12)CC(C)(C)O4
Result: 2.7

Ask: Note down Potency ratio recorded for COC(=O)Cc1cccc2c(=O)c3ccc(OCC=C(C)C)c(C)c3oc12
Result: 3

Ask: Note down Potency ratio recorded for CC1(C)Cc2c(ccc3c(=O)c4cccc(CC(=O)O)c4oc23)O1
Result: 1.3

Ask: Note down Potency ratio recorded for C=C(C)COc1ccc2c(=O)c3cccc(CC(=O)O)c3oc2c1C
Result: 0.9

Ask: Note down Potency ratio recorded for C=CCOc1ccc2c(=O)c3cccc(CC(=O)OC)c3oc2c1
Result: 0.5

Ask: Note down Potency ratio recorded for COC(=O)Cc1cccc2c(=O)c3ccc4c(c3oc12)C=CC(C)(C)O4
Result: 0.6

Ask: Note down Potency ratio recorded for CC1Cc2c(ccc3c(=O)c4cccc(CC(=O)O)c4oc23)O1 (stereo unspecified)
Result: 0.9
